test: Displacement of ethidium from poly[d(G-C)]-poly[d(G-C)] DNA (unknown origin) by fluorimetric method
Record form. Attribute: C50. Fill in for each entry.
Your answer should be a plain number; it is taken to be in µM.

Request: Supply recorded C50 for C[n+]1cccc(NC(=O)c2ccc(NC(=O)c3ccc(C(=O)Nc4ccc(C(=O)Nc5ccc[n+](C)c5)c(Cl)c4)cc3)cc2Cl)c1.Cc1ccc(S(=O)(=O)[O-])cc1.Cc1ccc(S(=O)(=O)[O-])cc1 here.
Response: 2.1

Request: Please give measured C50 of the following entry: C[n+]1cccc(-c2ccc(NC(=O)c3ccc(C(=O)Nc4ccc(-c5ccc(-c6ccc(-c7ccc[n+](C)c7)cc6)cc5)cc4)cc3)cc2)c1.Cc1ccc(S(=O)(=O)[O-])cc1.Cc1ccc(S(=O)(=O)[O-])cc1
Response: 0.37

Request: Give the reported value of C50 for this record: COc1cccc2c(Nc3ccc(C(=O)Nc4ccc(Nc5cc[n+](C)cc5)cc4)cc3)cc[n+](C)c12.[Br-].[Br-]
Response: 1.62

Request: Give C50 for C[n+]1ccc(-c2ccc(-c3ccc(-c4ccc(/N=N/Nc5ccc(C(=O)Nc6ccc(-c7ccc(-c8ccc(-c9cc[n+](C)cc9)cc8)cc7)cc6)cc5)cc4)cc3)cc2)cc1.Cc1ccc(S(=O)(=O)[O-])cc1.Cc1ccc(S(=O)(=O)[O-])cc1
Response: 0.38

Request: Using known records, supply C50 for Br.C/C(=N\NC(=N)N)c1ccc(NC(=O)Nc2ccc(Nc3cc[n+](C)c4ccc(N)cc34)cc2)cc1.[Br-]
Response: 0.53

Request: Output measured C50 for this item: C[n+]1ccc(Nc2ccc(NC(=O)c3ccc(Nc4cc[n+](C)c5cc(Cl)ccc45)cc3)cc2)cc1.[Br-].[Br-]
Response: 2.27

---

organism: Bos taurus; experiment: Displacement of ethidium from calf thymus DNA by fluorimetric method
measurement.name: log10 of C50 (log10 of the value in µM)
Hi team, quick reminder: these entries are log10 of C50 (µM).

Request: Note down log10 of C50 recorded for C[n+]1ccc(Nc2ccc(NC(=O)CCCCCCC(=O)Nc3ccc(Nc4cc[n+](C)cc4)cc3)cc2)cc1.[Br-].[Br-]
Response: 1.60

Request: Give recorded log10 of C50. C[n+]1ccc(Nc2ccc(NC(=O)c3ccc(C(=O)Nc4ccc(Nc5cc[n+](C)c(N)n5)cc4)cc3)cc2)nc1N.Cc1ccc(S(=O)(=O)[O-])cc1.Cc1ccc(S(=O)(=O)[O-])cc1
Response: -0.35

Request: Name the recorded log10 of C50 of the item C[n+]1ccc(Nc2ccc(NC(=O)c3ccc(Nc4c(-c5ccccc5)c[n+](C)c5ccc(N)cc45)cc3)cc2)cc1.[Br-].[Br-] in your answer.
Response: -0.41

Request: // Input: C[n+]1cccc(NC(=O)c2ccc(NC(=O)c3ccc(Nc4c5ccccc5[n+](C)c5ccc(N)cc45)cc3)cc2)c1.[Cl-].[Cl-] . Output its log10 of C50 only.
Response: -0.77

Request: Provide one value: measured log10 of C50 of C[n+]1cccc(NC(=O)c2ccc(NC(=O)c3ccc(C(=O)Nc4ccc(C(=O)Nc5ccc[n+](C)c5)cc4)c(N)c3)cc2)c1.Cc1ccc(S(=O)(=O)[O-])cc1.Cc1ccc(S(=O)(=O)[O-])cc1
Response: -0.28

Request: Indicate the recorded log10 of C50 value for this molecule: C[n+]1ccc(Nc2ccc(C(=O)Nc3ccc(Nc4cc[n+](C)c5cc(N)ccc45)cc3)cc2)cc1.Cc1ccc(S(=O)(=O)[O-])cc1.Cc1ccc(S(=O)(=O)[O-])cc1
Response: -0.37

---

experiment: Displacement of ethidium from poly[d(G-C)]-poly[d(G-C)] DNA (unknown origin) by fluorimetric method
measurement.name: C50 (µM)
Note: unit µM is implicit; provide only the numeric part.

Request: Tell me C50 reported for CC[n+]1cccc(NC(=O)c2ccc(NC(=O)c3ccc(C(=O)Nc4ccc5c(ccc[n+]5CC)c4)cc3)cc2)c1.Cc1ccc(S(=O)(=O)[O-])cc1.Cc1ccc(S(=O)(=O)[O-])cc1
Response: 1.48

Request: // fetch C50 given entry C[n+]1ccc(Nc2ccc(NC(=O)c3ccc(Nc4cc[n+](C)c5cc(N)ccc45)cc3)cc2)cc1.[Br-].[Br-]
Response: 1.4

Request: Return C50 for the following compound: CCC[n+]1cccc(NC(=O)c2ccc(NC(=O)c3ccc(C(=O)Nc4ccc(C(=O)Nc5ccc[n+](CCC)c5)cc4)cc3)cc2)c1.Cc1ccc(S(=O)(=O)[O-])cc1.Cc1ccc(S(=O)(=O)[O-])cc1
Response: 0.9

---

assay: Displacement of ethidium from poly[d(A-T)]-poly[d(A-T)] DNA by fluorimetric method
measurement.name: C50 (µM)
Provide the reading as a plain figure in µM.

Request: Assign C50 to the following record: COc1cc(C(=O)Nc2ccc[n+](C)c2)ccc1NC(=O)c1ccc(C(=O)Nc2ccc(C(=O)Nc3ccc[n+](C)c3)cc2OC)cc1.Cc1ccc(S(=O)(=O)[O-])cc1.Cc1ccc(S(=O)(=O)[O-])cc1
Response: 0.72

Request: Using known records, supply C50 for Cc1ccc(S(=O)(=O)[O-])cc1.Cc1ccc(S(=O)(=O)[O-])cc1.Cc1ccc2c(c1)c(Nc1ccc(C(=O)Nc3ccc(Nc4cc[n+](C)cc4)cc3)cc1)cc[n+]2C
Response: 0.17

Request: Quickly give me recorded C50 for COc1cc(N)cc2c(Nc3ccc(NC(=O)c4ccc(Nc5cc[n+](C)cc5)cc4)cc3)cc[n+](C)c12.Cc1ccc(S(=O)(=O)[O-])cc1.Cc1ccc(S(=O)(=O)[O-])cc1
Response: 0.1

Request: Specify reported C50 for the compound shown: C[n+]1ccc(Nc2ccc(NC(=O)c3ccc(-c4ccc(Nc5cc[n+](C)cc5)cc4)cc3)cc2)cc1.[I-].[I-]
Response: 0.37

Request: Look up and report measured C50 for this entry: C[n+]1c2ccccc2c(Nc2ccc(NC(=O)Nc3ccc(NC(=N)NC(=N)N)cc3)cc2)c2ccc(N)cc21.Cl.[Cl-]
Response: 0.06

Request: Give C50 for the following compound: C[n+]1ccc(Nc2ccc(NC(=O)c3ccc(Nc4cc[n+](C)c5ccc(N)cc45)cc3N)cc2)cc1.[I-].[I-]
Response: 0.1

---

Answer each item with its documented LD10.
system: Mus musculus; assay: Toxicity in ip dosed C3H X DBA2 F1 hybrid mouse […] with mouse L1210 cells on day 0 and dosed once daily on days 1 to 5 measured after 50 days; type: organism-based; conditions: in vivo, 1200 h
Quick note: give the figure in mg/kg, leave out the unit.

Request: Give LD10; test system Mus musculus; compound C[n+]1ccc(Nc2ccc(C(=O)Nc3ccc(Nc4cc[n+](C)c5cc(N)ccc45)cc3)c(N)c2)cc1.Cc1ccc(S(=O)(=O)[O-])cc1.Cc1ccc(S(=O)(=O)[O-])cc1
Response: 20

Request: Under Mus musculus, report LD10 for C[n+]1ccc(Nc2ccc(NC(=O)c3ccc(C(=O)Nc4ccc(C(=O)Nc5ccc[n+](C)c5)cc4)cc3)cc2)cc1.Cc1ccc(S(=O)(=O)[O-])cc1.Cc1ccc(S(=O)(=O)[O-])cc1
Response: 9

Request: Look up and report LD10, with Mus musculus as system, for C[n+]1cccc2cc(NC(=O)/C=C/c3ccc(C(=O)Nc4ccc5c(ccc[n+]5C)c4)cc3)ccc21.Cc1ccc(S(=O)(=O)[O-])cc1.Cc1ccc(S(=O)(=O)[O-])cc1
Response: 3

---

system: Mus musculus; test: Toxicity in ip dosed C3H X DBA2 F1 hybrid mouse […] with mouse L1210 cells on day 0 and dosed once daily on days 1 to 5 measured after 50 days; assay type: organism-based; conditions: in vivo, 1200 h
measurement.name: LD10

Request: Give LD10 only, for CCC[n+]1cccc(NC(=O)c2ccc(NC(=O)c3ccc(C(=O)Nc4ccc(C(=O)Nc5ccc[n+](CCC)c5)cc4)c(Cl)c3)cc2)c1.Cc1ccc(S(=O)(=O)[O-])cc1.Cc1ccc(S(=O)(=O)[O-])cc1 , using Mus musculus data.
Response: 40 mg/kg

Request: Consider the molecule CCC[n+]1cccc2cc(NC(=O)CCc3ccc(C(=O)Nc4ccc5c(ccc[n+]5CCC)c4)cc3)ccc21.Cc1ccc(S(=O)(=O)[O-])cc1.Cc1ccc(S(=O)(=O)[O-])cc1 tested on Mus musculus; state its LD10.
Response: 2 mg/kg

Request: // fetch LD10; item: COc1cc(NC(=O)c2ccc(C(=O)Nc3ccc(C(=O)Nc4ccc[n+](C)c4)c(OC)c3)cc2)ccc1C(=O)Nc1ccc[n+](C)c1.Cc1ccc(S(=O)(=O)[O-])cc1.Cc1ccc(S(=O)(=O)[O-])cc1 ; system: Mus musculus
Response: 41 mg/kg

Request: // fetch LD10; item: C[n+]1cccc(NC(=O)c2ccc(NC(=O)c3ccc(C(=O)Nc4ccc(C(=O)Nc5ccc[n+](C)c5)cc4)c4ccccc34)cc2)c1.Cc1ccc(S(=O)(=O)[O-])cc1.Cc1ccc(S(=O)(=O)[O-])cc1 ; system: Mus musculus
Response: 140 mg/kg

Request: Please report LD10 with Mus musculus for item Cc1c[n+](C)c2ccccc2c1Nc1ccc(C(=O)Nc2ccc(Nc3cc[n+](C)cc3)cc2)cc1.[Br-].[Br-] .
Response: 5 mg/kg
